system: COG-LL-355h; experiment: selective drug sensitivity score (sDSS, relative to normal bone marrow) (sDSS (score)); higher = more potent and effective on the cell line relative to normal bone marrow cells; settings: 72 h;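 further: ALL cell lines in 384-well plates, five doses spanning 10,000-fold, each plate scaled between vehicle and 100 µmol/L benzalkonium chloride controls, sDSS an adapted area-under-curve metric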

{"compound": "CNC(=O)c1nn(C)c2c1C(C)(C)Cc1cnc(Nc3ccc(N4CCN(C)CC4)cc3)nc1-2 [Milciclib] (top concentration 10000 nM)", "subject of test": "COG-LL-355h", "selective drug sensitivity score": 5.44}
{"compound": "Cc1ccc(C(=O)N(CCCN)[C@@H](c2oc3cc(Cl)ccc3c(=O)c2Cc2ccccc2)C(C)C)cc1 (top concentration 100 nM)", "subject of test": "COG-LL-355h", "selective drug sensitivity score": -2.64}
{"compound": "Cc1cc2c(C(=O)NC[C@H](C)c3ccccc3)c(O)c(O)cc2c(O)c1-c1c(C)cc2c(C(=O)NC[C@H](C)c3ccccc3)c(O)c(O)cc2c1O [Sabutoclax] (top concentration 25000 nM)", "subject of test": "COG-LL-355h", "selective drug sensitivity score": 15.6}

---

The entries below are paired with their reported selective drug sensitivity score.
test system: TMD5; assay: selective drug sensitivity score (sDSS, relative to normal bone marrow) (sDSS (score)); higher = more potent and effective on the cell line relative to normal bone marrow cells; conditions: 72 h

{"compound": "CC[C@H](Nc1ncnc2[nH]cnc12)c1nc2cccc(F)c2c(=O)n1-c1ccccc1 [Idelalisib] (top concentration 10000 nM)", "subject of test": "TMD5", "selective drug sensitivity score": 8.84}
{"compound": "C/C(=C\\c1csc(C)n1)[C@@H]1C[C@@H]2O[C@]2(C)CCC[C@H](C)[C@H](O)[C@@H](C)C(=O)C(C)(C)[C@@H](O)CC(=O)N1 [Ixabepilone] (top concentration 1000 nM)", "subject of test": "TMD5", "selective drug sensitivity score": 0.28}
{"compound": "Cc1nc(Nc2ncc(C(=O)Nc3c(C)cccc3Cl)s2)cc(N2CCN(CCO)CC2)n1 [Dasatinib] (top concentration 1000 nM)", "subject of test": "TMD5", "selective drug sensitivity score": 10.4}
{"compound": "CC(C)c1cc(-c2n[nH]c(=O)n2-c2ccc3c(ccn3C)c2)c(O)cc1O [Ganetespib] (top concentration 1000 nM)", "subject of test": "TMD5", "selective drug sensitivity score": -5.36}
{"compound": "COc1cc(N2CCC(N3CCN(C)CC3)CC2)ccc1Nc1ncc(Cl)c(Nc2ccccc2P(C)(C)=O)n1 [Brigatinib] (top concentration 1000 nM)", "subject of test": "TMD5", "selective drug sensitivity score": -2.04}
{"compound": "COc1ccc(S(=O)(=O)Nc2cccnc2Nc2ccc(O)cc2)cc1 [ABT-751] (top concentration 10000 nM)", "subject of test": "TMD5", "selective drug sensitivity score": 7.32}

---

tested on: TMD5; test: selective drug sensitivity score (sDSS, relative to normal bone marrow) (sDSS (score)); higher = more potent and effective on the cell line relative to normal bone marrow cells; conditions: 72 h
The entries below are paired with their reported selective drug sensitivity score.
metric: selective drug sensitivity score

{"compound": "CC/C(=C(\\c1ccccc1)c1ccc(OCCN(C)C)cc1)c1ccccc1 [Tamoxifen] (top concentration 10000 nM)", "metric": "selective drug sensitivity score", "numeric readout": -0.48}
{"compound": "COc1cc(Br)c(Nc2nc(-c3c(C)nc4ncccn34)cs2)c(Br)c1 [PTC-209] (top concentration 10000 nM)", "metric": "selective drug sensitivity score", "numeric readout": -2.18}
{"compound": "CCN(CC)Cc1ccc2cc(COC(=O)Nc3ccc(C(=O)NO)cc3)ccc2c1 [Givinostat] (top concentration 1000 nM)", "metric": "selective drug sensitivity score", "numeric readout": -0.1}
{"compound": "COc1cc2ncnc(Nc3ccc(F)c(Cl)c3)c2cc1NC(=O)/C=C/CN1CCCCC1 [Dacomitinib] (top concentration 1000 nM)", "metric": "selective drug sensitivity score", "numeric readout": 1.46}
{"compound": "N#CC(c1ccnc(OCc2ccc(CN3CCOCC3)cc2)n1)c1nc2ccccc2s1 (configuration not stated) [Bentamapimod] (top concentration 10000 nM)", "metric": "selective drug sensitivity score", "numeric readout": 0.74}
{"compound": "CC1(COc2ccc3c(c2)ncn3-c2ccc3cccc(N4CCC(N)CC4)c3n2)COC1 [Crenolanib] (top concentration 10000 nM)", "metric": "selective drug sensitivity score", "numeric readout": -0.02}
{"compound": "C[C@H]1CNCCCN1S(=O)(=O)c1cccc2cncc(F)c12 [Ripasudil] (top concentration 10000 nM)", "metric": "selective drug sensitivity score", "numeric readout": 0.98}

---

The entries below are paired with their reported selective drug sensitivity score.
system: 380; experiment: selective drug sensitivity score (sDSS, relative to normal bone marrow) (sDSS (score)); higher = more potent and effective on the cell line relative to normal bone marrow cells; conditions: 72 h

{"molecule": "Cn1cnc2c(F)c(Nc3ccc(Br)cc3F)c(C(=O)NOCCO)cc21 [Binimetinib] (top concentration 1000 nM)", "subject of test": 380, "selective drug sensitivity score": 1.58}
{"molecule": "CNC(=O)c1cc(Oc2ccc(NC(=O)Nc3ccc(Cl)c(C(F)(F)F)c3)cc2)ccn1 [Sorafenib] (top concentration 1000 nM)", "subject of test": 380, "selective drug sensitivity score": 0}
{"molecule": "CN1CCC(COc2cnc(-c3cccc(Cn4nc(-c5cccc(C#N)c5)ccc4=O)c3)nc2)CC1 [Tepotinib] (top concentration 1000 nM)", "subject of test": 380, "selective drug sensitivity score": -0.08}
{"molecule": "Cc1c(F)cc(C(=O)NC2CC2)cc1-c1ccc(C(=O)NCC(C)(C)C)cn1 [Losmapimod] (top concentration 10000 nM)", "subject of test": 380, "selective drug sensitivity score": -0.18}
{"molecule": "COc1cc(Nc2ncc(F)c(Nc3ccc4c(n3)N(COP(=O)(O)O)C(=O)C(C)(C)O4)n2)cc(OC)c1OC [Fostamatinib] (top concentration 2500 nM)", "subject of test": 380, "selective drug sensitivity score": -2.84}
{"molecule": "N#CC(c1ccnc(OCc2ccc(CN3CCOCC3)cc2)n1)c1nc2ccccc2s1 (stereo unspecified) [Bentamapimod] (top concentration 10000 nM)", "subject of test": 380, "selective drug sensitivity score": -0.46}

---

test system: COG-LL-332h; assay: selective drug sensitivity score (sDSS, relative to normal bone marrow) (sDSS (score)); higher = more potent and effective on the cell line relative to normal bone marrow cells; settings: 72 h

{"compound": "COc1cccc2c1C(=O)c1c(O)c3c(c(O)c1C2=O)C[C@@](O)(C(C)=O)C[C@@H]3O[C@H]1C[C@H](N)[C@H](O)[C@H](C)O1 [Daunorubicin] (top concentration 1000 nM)", "selective drug sensitivity score": 12.1}
{"compound": "O=C(Nc1ccncc1)C(=O)c1cn(Cc2ccc(Cl)cc2)c2ccccc12 [Indibulin] (top concentration 10000 nM)", "selective drug sensitivity score": 6.34}
{"compound": "CCN(CC)CCCC(C)Nc1ccnc2cc(Cl)ccc12 (stereo unspecified) [Chloroquine] (top concentration 100000 nM)", "selective drug sensitivity score": -0.64}
{"compound": "CC(C)Oc1ccc(C(=O)N[C@H](CNC(=O)CN(C)C)Cc2ccc(-c3cn4cccc([C@H](C)O)c4n3)cc2)cc1Cl (top concentration 10000 nM)", "selective drug sensitivity score": 16.5}
{"compound": "COc1cccc(-c2ccc(NC(=O)C3=C(C(=O)O)CCC3)c(F)c2)c1 [Vidofludimus] (top concentration 10000 nM)", "selective drug sensitivity score": 4.9}
{"compound": "CC[C@]12C=CCN3CC[C@@]4(c5cc([C@@]6(C(=O)OC)C[C@@H]7C[C@@H](C(C)(F)F)CN(Cc8c6[nH]c6ccccc86)C7)c(OC)cc5N(C)[C@H]4[C@@](O)(C(=O)OC)[C@@H]1OC(C)=O)[C@@H]32 [Vinflunine] (top concentration 1000 nM)", "selective drug sensitivity score": 3.78}
{"compound": "O=C1CN2Cc3c(ccc(Cl)c3Cl)N=C2N1 [Anagrelide] (top concentration 10000 nM)", "selective drug sensitivity score": 0}
{"compound": "COc1cc([C@@H]2c3cc4c(cc3[C@@H](O[C@@H]3O[C@@H]5CO[C@@H](c6cccs6)O[C@H]5[C@H](O)[C@H]3O)[C@H]3COC(=O)[C@H]23)OCO4)cc(OC)c1O [Teniposide] (top concentration 10000 nM)", "selective drug sensitivity score": 0}
{"compound": "Cc1cnc(NC(=O)Nc2cc(Br)c(C)cc2OC[C@@H]2CNCCO2)cn1 [Rabusertib] (top concentration 1000 nM)", "selective drug sensitivity score": -0.74}
{"compound": "Cc1cc2c(C(=O)NC[C@H](C)c3ccccc3)c(O)c(O)cc2c(O)c1-c1c(C)cc2c(C(=O)NC[C@H](C)c3ccccc3)c(O)c(O)cc2c1O [Sabutoclax] (top concentration 25000 nM)", "selective drug sensitivity score": 12.8}
{"compound": "CNC(=O)CN1CCC(Oc2cc3c(Nc4cccc(Cl)c4F)ncnc3cc2OC)CC1 [Sapitinib] (top concentration 1000 nM)", "selective drug sensitivity score": 0}
